target: human MSR1 extracellular domain expressed with a N-terminal nonahistidine tag (His9-hMSR1; R&D Systems, Cat #2708-MS) (human) (UniProt P21757); experiment: competition ELISA; 300 nM antibody, competitor biot-AGE-BSA, plate-coated His9-hMSR1
Sequence (P21757 other isoform, or with tags, fused parts or gaps): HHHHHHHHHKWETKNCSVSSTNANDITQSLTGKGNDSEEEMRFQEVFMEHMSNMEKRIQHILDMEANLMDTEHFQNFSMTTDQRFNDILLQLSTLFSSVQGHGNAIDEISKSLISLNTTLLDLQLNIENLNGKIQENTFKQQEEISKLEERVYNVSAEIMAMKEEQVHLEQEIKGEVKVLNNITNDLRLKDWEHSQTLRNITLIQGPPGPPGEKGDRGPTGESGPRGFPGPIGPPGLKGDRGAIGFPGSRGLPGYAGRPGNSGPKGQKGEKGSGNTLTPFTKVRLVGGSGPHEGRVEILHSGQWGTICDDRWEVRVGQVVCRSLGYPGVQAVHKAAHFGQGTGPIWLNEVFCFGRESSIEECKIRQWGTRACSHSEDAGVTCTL
Listed here: items and their measured % Blocking.
Lab book: enter the figure in %, no units written.

The following binders have reported results that may help.
>>> reported_result("H1H21234N (antibody, human IgG1, V domains shown) VH: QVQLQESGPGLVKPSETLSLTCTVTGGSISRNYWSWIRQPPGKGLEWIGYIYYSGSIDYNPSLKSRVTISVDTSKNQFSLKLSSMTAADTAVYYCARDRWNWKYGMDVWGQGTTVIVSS VL: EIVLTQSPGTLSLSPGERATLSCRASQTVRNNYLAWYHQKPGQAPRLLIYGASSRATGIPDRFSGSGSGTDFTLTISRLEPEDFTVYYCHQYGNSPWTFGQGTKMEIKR")
21
>>> reported_result("H1H27754P-N297Q (antibody, human IgG1, V domains shown) VH: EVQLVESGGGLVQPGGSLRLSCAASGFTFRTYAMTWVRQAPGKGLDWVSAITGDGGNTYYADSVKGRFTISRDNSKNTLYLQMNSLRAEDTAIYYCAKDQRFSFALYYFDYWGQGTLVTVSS VL: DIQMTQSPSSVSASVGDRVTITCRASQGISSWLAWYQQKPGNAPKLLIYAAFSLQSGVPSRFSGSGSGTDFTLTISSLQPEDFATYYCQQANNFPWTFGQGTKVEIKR")
-9
>>> reported_result("H1H27739P-N297Q (antibody, human IgG1, V domains shown) VH: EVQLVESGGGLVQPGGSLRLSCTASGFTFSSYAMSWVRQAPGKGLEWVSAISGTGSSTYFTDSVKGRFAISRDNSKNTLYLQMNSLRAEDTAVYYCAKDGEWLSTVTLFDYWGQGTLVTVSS VL: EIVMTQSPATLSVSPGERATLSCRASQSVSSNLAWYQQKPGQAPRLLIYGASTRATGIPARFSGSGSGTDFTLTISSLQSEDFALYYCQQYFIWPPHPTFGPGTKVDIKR")
-9

Please fill in: % Blocking reported for H1H27729P-N297Q (antibody, human IgG1, V domains shown) VH: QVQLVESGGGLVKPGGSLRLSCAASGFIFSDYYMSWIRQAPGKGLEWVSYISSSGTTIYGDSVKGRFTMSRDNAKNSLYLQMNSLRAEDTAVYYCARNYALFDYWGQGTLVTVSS VL: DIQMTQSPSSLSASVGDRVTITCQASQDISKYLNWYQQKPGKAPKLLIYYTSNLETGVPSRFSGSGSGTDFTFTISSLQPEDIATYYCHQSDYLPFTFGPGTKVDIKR = 15

Please fill in: % Blocking reported for H1H21227N-N297D (antibody, human IgG1, V domains shown) VH: QVQLVQSGAEVKKPGASVKVSCKVSGYTLTELSIHWVRQVPGKGLEWMGGFDPEEGETIFAQEFRDRVTLTEDTSPDTAYMELSSLKSEDAAVYYCTTPRYCNNGICYDYWGQGTLVTVSS VL: DIQMTQSPSSLSASVGDRVTITCRASQSISNYLNWYQQKPGKAPKLLIYTASSLQSGVPSRFSGSGSGTDFTLTISSLQTEDFATYYCQQSYSNFPITFGQGTRLEIKR = 97

meta.source: patent US20230285581A1
